Molecular target: sLFA-1/ICAM-1 (Homo sapiens, UniProt P05107+P20701, DEL701-769)
Sequence (P20701 26-1090 limits assumed, stated change not applied): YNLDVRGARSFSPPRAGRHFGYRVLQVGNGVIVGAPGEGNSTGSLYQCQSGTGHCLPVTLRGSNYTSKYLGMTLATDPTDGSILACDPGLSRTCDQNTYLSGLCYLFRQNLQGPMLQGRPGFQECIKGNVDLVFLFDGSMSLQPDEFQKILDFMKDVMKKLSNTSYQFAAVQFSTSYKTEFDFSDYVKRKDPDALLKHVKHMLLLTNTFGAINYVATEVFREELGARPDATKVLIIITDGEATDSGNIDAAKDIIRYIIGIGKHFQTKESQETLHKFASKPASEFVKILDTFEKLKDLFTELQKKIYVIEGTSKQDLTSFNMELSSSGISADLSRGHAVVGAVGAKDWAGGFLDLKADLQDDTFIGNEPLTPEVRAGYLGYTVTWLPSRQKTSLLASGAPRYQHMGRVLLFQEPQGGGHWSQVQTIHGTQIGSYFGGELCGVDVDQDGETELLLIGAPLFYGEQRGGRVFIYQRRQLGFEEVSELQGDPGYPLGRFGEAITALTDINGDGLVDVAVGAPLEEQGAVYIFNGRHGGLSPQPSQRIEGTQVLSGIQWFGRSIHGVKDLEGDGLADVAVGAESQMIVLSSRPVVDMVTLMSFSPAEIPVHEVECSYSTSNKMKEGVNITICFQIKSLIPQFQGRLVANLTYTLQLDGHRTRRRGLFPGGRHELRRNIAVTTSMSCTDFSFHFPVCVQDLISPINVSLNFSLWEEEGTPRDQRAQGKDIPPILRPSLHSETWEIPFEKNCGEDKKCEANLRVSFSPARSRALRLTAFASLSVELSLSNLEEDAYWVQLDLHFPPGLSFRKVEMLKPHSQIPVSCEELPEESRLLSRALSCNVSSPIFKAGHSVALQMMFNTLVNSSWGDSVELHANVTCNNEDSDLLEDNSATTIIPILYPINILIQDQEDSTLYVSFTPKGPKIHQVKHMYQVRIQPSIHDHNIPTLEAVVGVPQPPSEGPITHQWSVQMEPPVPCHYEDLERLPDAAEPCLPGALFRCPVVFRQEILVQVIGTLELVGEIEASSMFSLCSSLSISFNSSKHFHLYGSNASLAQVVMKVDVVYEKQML
Sequence (P05107 23-700 limits assumed, stated change not applied): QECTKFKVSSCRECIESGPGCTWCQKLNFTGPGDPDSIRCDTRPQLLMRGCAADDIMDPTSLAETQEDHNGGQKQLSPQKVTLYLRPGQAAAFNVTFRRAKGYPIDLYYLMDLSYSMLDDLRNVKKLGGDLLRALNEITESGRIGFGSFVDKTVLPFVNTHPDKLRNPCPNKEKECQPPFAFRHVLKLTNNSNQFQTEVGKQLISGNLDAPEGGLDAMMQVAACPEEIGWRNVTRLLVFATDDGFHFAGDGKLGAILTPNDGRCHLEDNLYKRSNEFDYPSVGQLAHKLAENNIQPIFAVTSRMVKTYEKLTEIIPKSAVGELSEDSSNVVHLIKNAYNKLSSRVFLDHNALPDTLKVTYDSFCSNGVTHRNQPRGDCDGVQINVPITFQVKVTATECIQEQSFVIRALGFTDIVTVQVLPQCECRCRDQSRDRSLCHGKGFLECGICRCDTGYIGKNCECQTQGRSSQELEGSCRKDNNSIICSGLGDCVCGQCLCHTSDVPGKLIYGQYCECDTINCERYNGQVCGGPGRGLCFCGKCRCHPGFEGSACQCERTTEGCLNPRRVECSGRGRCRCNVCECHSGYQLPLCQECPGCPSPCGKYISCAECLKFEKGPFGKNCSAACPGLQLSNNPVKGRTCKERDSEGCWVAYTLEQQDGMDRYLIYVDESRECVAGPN
Assay: sLFA-1/ICAM-1 ELISA
Assay type: binding
Conditions: sLFA-1 coated plates, 5dICAM-Fc binding, ELISA; read-out: LFA-1/ICAM (IC50)
pIC50: −log10 of the molar value.
Each entry gets FALSE if its pIC50 stays under 7, and TRUE if its pIC50 is 7 or above.

Q) Does the compound Cc1nc(NCCCc2cccc(O)c2)nc(C)c1C(=O)N[C@@H](CNC(=O)C12CC3CC(CC(C3)C1)C2)C(=O)O have recorded pIC50 that is 7 or more?
A) FALSE

Q) Test whether the compound Cc1nc(NCCCc2cccc(O)n2)nc(C)c1C(=O)N[C@@H](CNC(=O)c1cccs1)C(=O)O records pIC50 of 7 or higher.
A) FALSE

Q) Kindly determine if pIC50 recorded for Cc1nc(NC2CCc3cccc(O)c3C2)nc(C)c1C(=O)N[C@@H](CNC(=O)c1cnccn1)C(=O)O (stereo partly drawn) is above or exactly 7.
A) FALSE

Q) Exam item: decide whether the reported pIC50 for Cc1nc(NCCCc2cc(O)ccc2F)nc(C)c1C(=O)N[C@@H](CNC(=O)c1cccs1)C(=O)O is at least 7.
A) FALSE

Q) Evaluate Cc1nc(NCCCc2cccc(O)c2)nc(C)c1C(=O)N[C@@H](CNC(=O)c1cccs1)C(=O)O : pIC50 at minimum 7?
A) TRUE

Q) Threshold query (pIC50 >= 7) on Cc1nc(NCCCc2cccc(O)c2)nc(C)c1C(=O)N[C@@H](CNC(=O)c1ccsc1)C(=O)O
A) TRUE

Q) Could you please find out whether CCc1nc(NCCCc2cccc(O)c2)nc(C)c1C(=O)N[C@@H](CNC(=O)c1cccs1)C(=O)O has pIC50 that meets 7 or exceeds it?
A) TRUE

Q) pIC50 >= 7 for Cc1nc(NCCCc2cccc3[nH]ncc23)nc(C)c1C(=O)N[C@@H](CNC(=O)c1cccs1)C(=O)O ?
A) TRUE

Q) Tell me whether pIC50 is at least 7 here: Cc1nc(NCCCc2cccc(O)c2)nc(C)c1C(=O)N[C@@H](CNC(=O)c1cccc(O)c1)C(=O)O
A) TRUE

Q) Check if pIC50 >= 7 (inclusive). Item: Cc1ccc(CCCNc2nc(C)c(C(=O)N[C@@H](CNC(=O)c3cccs3)C(=O)O)c(C)n2)cc1O
A) FALSE

Q) Check this compound for pIC50 at or above 7: Cc1nc(NCCCc2cccc(O)c2)nc(C)c1C(=O)N[C@@H](CNC(=O)N1CCCc2ccccc21)C(=O)O
A) FALSE

Q) Assess whether reported pIC50 for Cc1ccc(C(=O)NC[C@H](NC(=O)c2c(C)nc(NCCCc3cccc(O)c3)nc2C)C(=O)O)s1 sits at 7 or higher.
A) TRUE

Q) Textbook exercise: given the entry Cc1nc(OCCCc2cccc(O)c2)nc(C)c1C(=O)N[C@@H](CNC(=O)c1cccs1)C(=O)O , state whether its pIC50 is greater than or equal to 7.
A) TRUE

Q) Does the compound O=C(NC[C@H](NC(=O)c1cnc(NCCCc2cccc(O)c2)nc1C(F)(F)F)C(=O)O)c1cccs1 have recorded pIC50 that is 7 or more?
A) FALSE

Q) Threshold query (pIC50 >= 7) on Cc1nc(NCCCc2ccc(F)c(O)c2)nc(C)c1C(=O)N[C@@H](CNC(=O)c1cccs1)C(=O)O
A) FALSE

Q) For this compound, is measured pIC50 7 or higher? Cc1nc(NCCCc2ccc(O)cc2)nc(C)c1C(=O)N[C@@H](CNC(=O)c1cccs1)C(=O)O
A) TRUE

Q) Quick check, pIC50 >= 7? Cc1cccc(C(=O)NC[C@H](NC(=O)c2c(C)nc(NCCCc3cccc(O)c3)nc2C)C(=O)O)c1
A) FALSE

Q) Is it the case that Cc1nc(NCCCc2cccc(O)c2F)nc(C)c1C(=O)N[C@@H](CNC(=O)c1cccs1)C(=O)O has pIC50 reaching or exceeding 7?
A) FALSE

Source listed as patent US20120270875A1.
